Measured interaction score, listed per entry for reference.
TARGET OR TEST SYSTEM: T1, O8-AA
T1 chain: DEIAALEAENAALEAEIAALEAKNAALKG
METHOD: two-hybrid library CCmax;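 note: natural log of median RNA to DNA barcode read ratio; higher means stronger binding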
CONDITION DETAILS: mean of both orientations
Note: the reply should be a number with no unit written.

Worked examples, 2 binders total:
{"BINDER": "DENAALEAKNAALKAKIAALKAKIAALKG [O2-AA]", "interaction score": 0.633}
{"BINDER": "DEIAALEAKIAALKAKNAALKAKNAALKG [4H384-AA]", "interaction score": 0.295}

interaction score in this record for DKNAALKAKIAALKAENAALEAKIAALKG [O6-AA] : 1.57

interaction score in this record for DKIAALKAKNAALKAKIAALKAENAALEG [O7-AA] : 2.12

interaction score in this record for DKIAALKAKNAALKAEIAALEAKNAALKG [4H3016-AA] : 1.56

interaction score in this record for DKNAALKAENAALEAEIAALEAEIAALEG [O1-AA] : -1.41
